Measured inhibition by item
# target.system: Estrogen receptor (Mus musculus) (UniProt O08537+P19785)
# Sequence (O08537 whole entry, looked up): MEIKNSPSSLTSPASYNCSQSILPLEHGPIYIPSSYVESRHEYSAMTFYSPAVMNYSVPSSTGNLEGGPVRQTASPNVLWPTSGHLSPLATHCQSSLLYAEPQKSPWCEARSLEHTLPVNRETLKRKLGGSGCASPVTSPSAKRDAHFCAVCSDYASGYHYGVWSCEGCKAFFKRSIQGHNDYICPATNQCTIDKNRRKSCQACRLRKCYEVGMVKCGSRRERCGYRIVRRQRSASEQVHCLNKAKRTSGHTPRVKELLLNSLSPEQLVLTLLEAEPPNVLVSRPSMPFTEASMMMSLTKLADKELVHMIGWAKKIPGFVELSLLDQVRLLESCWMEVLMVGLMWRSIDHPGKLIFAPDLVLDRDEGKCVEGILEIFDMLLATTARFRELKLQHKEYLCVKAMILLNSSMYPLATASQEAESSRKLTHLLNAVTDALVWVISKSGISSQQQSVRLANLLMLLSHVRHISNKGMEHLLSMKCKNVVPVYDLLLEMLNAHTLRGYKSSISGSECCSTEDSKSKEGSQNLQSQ
# Sequence (P19785 whole entry, looked up): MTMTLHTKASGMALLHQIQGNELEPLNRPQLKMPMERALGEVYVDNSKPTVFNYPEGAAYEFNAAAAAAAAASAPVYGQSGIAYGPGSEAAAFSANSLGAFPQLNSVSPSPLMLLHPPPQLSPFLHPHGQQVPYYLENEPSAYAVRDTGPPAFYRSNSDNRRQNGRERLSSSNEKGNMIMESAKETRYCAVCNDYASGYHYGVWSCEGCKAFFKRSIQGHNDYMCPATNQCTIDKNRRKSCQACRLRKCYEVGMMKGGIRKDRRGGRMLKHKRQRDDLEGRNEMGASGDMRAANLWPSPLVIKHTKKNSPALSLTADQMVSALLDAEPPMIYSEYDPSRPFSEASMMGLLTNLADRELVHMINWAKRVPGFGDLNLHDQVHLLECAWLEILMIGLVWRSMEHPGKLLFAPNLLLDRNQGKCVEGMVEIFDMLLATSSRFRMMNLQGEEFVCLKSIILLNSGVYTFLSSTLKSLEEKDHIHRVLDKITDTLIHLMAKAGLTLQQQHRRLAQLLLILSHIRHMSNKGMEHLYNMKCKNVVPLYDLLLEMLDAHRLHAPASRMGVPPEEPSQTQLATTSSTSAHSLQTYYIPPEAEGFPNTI
# protocol.notes: Anti-uterotrophic effect in immature mice at 25 ug
# Type: functional
endpoint: inhibition (%)

{"compound": "CC/C(=C(/CC)c1ccc(C(C)=O)c(C(C)=O)c1)c1ccc(C(C)=O)c(C(C)=O)c1", "endpoint": "inhibition", "measured.value": 8}
{"compound": "CC(=O)c1cccc(C2=C(C(C)C)c3cc(C(C)=O)ccc3C2(C)C)c1", "endpoint": "inhibition", "measured.value": 0}
{"compound": "CC(=O)c1ccc(C2=C(C(C)C)c3cc(C(C)=O)c(C(C)=O)cc3C2(C)C)cc1C(C)=O", "endpoint": "inhibition", "measured.value": 11}
{"compound": "CCC1=C(c2cccc(C(C)=O)c2)C(C)c2ccc(C(C)=O)cc21 (centres undefined)", "endpoint": "inhibition", "measured.value": 9}

====

# target.system: Estrogen receptor (Mus musculus) (UniProt O08537+P19785)
# protocol.notes: Anti-uterotrophic effect in mice at 1.0 ug
# Assay type: functional
endpoint: Effect

{"compound": "CC(=O)c1cccc(C2=C(C(C)C)c3cc(C(C)=O)ccc3C2(C)C)c1", "target.system": "Estrogen receptor (Mus musculus) (UniProt O08537+P19785)", "endpoint": "Effect", "measured.value": "30.3 mg 100g-1"}
{"compound": "CC/C(=C(/CC)c1ccc(C(C)=O)c(C(C)=O)c1)c1ccc(C(C)=O)c(C(C)=O)c1", "target.system": "Estrogen receptor (Mus musculus) (UniProt O08537+P19785)", "endpoint": "Effect", "measured.value": "33.8 mg 100g-1"}
{"compound": "CCC1=C(c2cccc(C(C)=O)c2)C(C)c2ccc(C(C)=O)cc21 (centres undefined)", "target.system": "Estrogen receptor (Mus musculus) (UniProt O08537+P19785)", "endpoint": "Effect", "measured.value": "30.1 mg 100g-1"}
{"compound": "CC(=O)c1ccc(C2=C(C(C)C)c3cc(C(C)=O)c(C(C)=O)cc3C2(C)C)cc1C(C)=O", "target.system": "Estrogen receptor (Mus musculus) (UniProt O08537+P19785)", "endpoint": "Effect", "measured.value": "29 mg 100g-1"}

====

# target.system: Estrogen receptor (Mus musculus) (UniProt O08537+P19785)
# protocol.notes: Anti-uterotrophic effect in mice at 25 ug
# Assay type: functional
Measured Effect by item
endpoint: Effect (mg 100g-1)

{"molecule": "CC/C(=C(/CC)c1ccc(C(C)=O)c(C(C)=O)c1)c1ccc(C(C)=O)c(C(C)=O)c1", "target.system": "Estrogen receptor (Mus musculus) (UniProt O08537+P19785)", "unit.symbol": "mg 100g-1", "measured.value": 40.4}
{"molecule": "CC(=O)c1ccc(C2=C(C(C)C)c3cc(C(C)=O)c(C(C)=O)cc3C2(C)C)cc1C(C)=O", "target.system": "Estrogen receptor (Mus musculus) (UniProt O08537+P19785)", "unit.symbol": "mg 100g-1", "measured.value": 32.5}
{"molecule": "CCC1=C(c2cccc(C(C)=O)c2)C(C)c2ccc(C(C)=O)cc21 (centres undefined)", "target.system": "Estrogen receptor (Mus musculus) (UniProt O08537+P19785)", "unit.symbol": "mg 100g-1", "measured.value": 40.2}
{"molecule": "CC(=O)c1cccc(C2=C(C(C)C)c3cc(C(C)=O)ccc3C2(C)C)c1", "target.system": "Estrogen receptor (Mus musculus) (UniProt O08537+P19785)", "unit.symbol": "mg 100g-1", "measured.value": 44.7}

====

# target.system: Estrogen receptor (Bos taurus) (UniProt Q9XSB5+P49884)
# protocol.notes: Inhibition of [3H]estradiol binding to calf uterine estrogen receptor
# Format: protein assay
endpoint: RBA (%)

{"compound": "CC/C(=C(/CC)c1ccc(C(C)=O)c(C(C)=O)c1)c1ccc(C(C)=O)c(C(C)=O)c1", "measured.value": 1}
{"compound": "CC(=O)c1ccc(C2=C(C(C)C)c3cc(C(C)=O)c(C(C)=O)cc3C2(C)C)cc1C(C)=O", "measured.value": 1.7}
{"compound": "CC/C(=C(/CC)c1cccc(C(C)=O)c1)c1cccc(C(C)=O)c1", "measured.value": 2.2}
{"compound": "CC(=O)c1cccc(C2=C(C(C)C)c3cc(C(C)=O)ccc3C2(C)C)c1", "measured.value": 2}
{"compound": "CCC1=C(c2cccc(C(C)=O)c2)C(C)c2ccc(C(C)=O)cc21 (stereo not given)", "measured.value": 1.8}

====

Measured inhibition by item
# target.system: Estrogen receptor (Mus musculus) (UniProt O08537+P19785)
# protocol.notes: Anti-uterotrophic effect in immature mice at 1.0 ug
# Type: functional

{"compound": "CC(=O)c1cccc(C2=C(C(C)C)c3cc(C(C)=O)ccc3C2(C)C)c1", "target.system": "Estrogen receptor (Mus musculus) (UniProt O08537+P19785)", "unit.symbol": "%", "inhibition": 21}
{"compound": "CC(=O)c1ccc(C2=C(C(C)C)c3cc(C(C)=O)c(C(C)=O)cc3C2(C)C)cc1C(C)=O", "target.system": "Estrogen receptor (Mus musculus) (UniProt O08537+P19785)", "unit.symbol": "%", "inhibition": 28}
{"compound": "CCC1=C(c2cccc(C(C)=O)c2)C(C)c2ccc(C(C)=O)cc21 (centres undefined)", "target.system": "Estrogen receptor (Mus musculus) (UniProt O08537+P19785)", "unit.symbol": "%", "inhibition": 48}
{"compound": "CC/C(=C(/CC)c1ccc(C(C)=O)c(C(C)=O)c1)c1ccc(C(C)=O)c(C(C)=O)c1", "target.system": "Estrogen receptor (Mus musculus) (UniProt O08537+P19785)", "unit.symbol": "%", "inhibition": 31}

From: ChEMBL document CHEMBL1123458
